B1: CPEB3 Ribozyme (parent)
chain: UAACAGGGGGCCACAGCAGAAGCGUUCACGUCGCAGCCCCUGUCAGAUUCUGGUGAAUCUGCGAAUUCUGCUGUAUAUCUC

Variants of: B1
Assay: self-cleavage, relative activity (ratio to wild type); higher = more cleavage; in vitro, sequencing
Group membership follows self-cleavage per the scheme lo (below 0.2), med (0.2 to below 0.4), hi (0.4 or more)

Consider the following illustrative entries.
Mutant code	Class name
C12U C27A	hi
C27A U67C	lo
A2U A64G	hi
C14U U43G	med
G6U A57G	hi
C29U U41G	med

## Task Class (by measured self-cleavage) for C11G U69G
## Result lo

## Task Class (by measured self-cleavage) for A64C G70A
## Result med

## Task Class (by measured self-cleavage) for C37U U66A
## Result med

## Task Class (by measured self-cleavage) for U26C G36C
## Result lo

## Task Class (by measured self-cleavage) for G6U U58C
## Result lo

## Task Class (by measured self-cleavage) for U26C G70A
## Result hi

## Task Class (by measured self-cleavage) for A28C C38G
## Result lo

## Task Class (by measured self-cleavage) for A18U C29U
## Result lo
